Below, each of the compounds is paired with its reported Lipophilic Efficiency (logD) value.
- Test system: parental HEK cells
- experimental_protocol: HEK parental Agonist Counterscreen Assay (non-transfected cells)
- Format: cell-based
- settings: HEK Agonist Activity section
- Description: The high control for the agonist counterscreen was Forskolin not acetylcholine.
quantity: Lipophilic Efficiency (logD)

INSERT INTO measurements (compound, tested_target, quantity, result) VALUES
  ('Cc1[nH]ncc1-c1ccc(NC(=O)C2COc3ccc(F)cc3C2)c(OCCN2CCOCC2)c1.O=C(O)C(F)(F)F.O=C(O)C(F)(F)F (centres unmarked) [SR-00000005393]', 'parental HEK cells', 'Lipophilic Efficiency (logD)', 1.92),
  ('COc1ccccc1NC(=O)C(=O)NNC(=O)COc1ccc(Br)cc1C [SR-01000325257]', 'parental HEK cells', 'Lipophilic Efficiency (logD)', 2.48),
  ('O=C(CCc1nc2ccccc2s1)NNC(=O)CSc1ccccc1F [SR-01000069574]', 'parental HEK cells', 'Lipophilic Efficiency (logD)', 2.04),
  ('Cc1c(Cl)c([N+](=O)[O-])nn1CC(=O)NC(C)COc1ccccc1 (centres unmarked) [SR-01000318171]', 'parental HEK cells', 'Lipophilic Efficiency (logD)', 2.16),
  ('O=C(Cc1ccccc1)CC1C=CC2=C1c1ccccc1CC2 (centres unmarked) [SR-01000134941]', 'parental HEK cells', 'Lipophilic Efficiency (logD)', 2.40);
